System: Yap1 mRNA
protocol_text: Dose-dependent inhibition of human Yap1 in A-431 cells (Example 8, 10,000 cells per well, RTS4814)
Format: cell-based
experimental_context: 31.3 nM; A-431 cells
Strand notation (5' to 3'): a small letter for the sugar, then the base; units joined by * are phosphorothioate-linked, units joined directly phosphodiester-linked; [ ] holds rarer units or linkages, { } end groups; capitals alone tell only the bases. k = constrained ethyl (cEt); [5mC] = 5-methylcytosine; d = 2'-deoxy (DNA)
Measured % UTC (Yap1 mRNA) accompanies every entry in the list below.
property_measured: % UTC (Yap1 mRNA) (% UTC)

1) 1074676 (antisense k[5mC]*kA*kA*dA*dT*dT*dA*dT*dA*dG*dG*d[5mC]*dA*k[5mC]*kT*k[5mC]) [compound 1074676] ... 54
2) 1074485 (kT*kT*k[5mC]*dA*d[5mC]*dT*dA*dA*dT*dA*dT*dG*dG*kT*k[5mC]*kA; antisense) [compound 1074485] ... 47
3) 1076439 (k[5mC]*kT*kT*dA*dT*dA*dT*dG*dG*dT*dT*dT*dT*kG*kT*kG) [compound 1076439] ... 48
4) 1076022 (kT*kA*kA*dT*dT*dA*dG*dA*dT*dG*d[5mC]*dT*dG*kA*k[5mC]*kA; antisense) [compound 1076022] ... 63
5) 1075222 (kG*kT*kA*dT*dT*dT*dG*dG*dA*d[5mC]*dA*dA*d[5mC]*kT*k[5mC]*kT; antisense) [compound 1075222] ... 75
6) 1074679 (antisense kT*k[5mC]*kT*dT*dA*dA*dT*d[5mC]*dT*dG*dT*dG*dG*k[5mC]*kT*kA) [compound 1074679] ... 52

----------
Tested on: Yap1 mRNA
protocol_text: Dose-dependent inhibition of human Yap1 in SNU-449 cells (Example 9, RTS36584)
Format: cell-based
experimental_context: 500.0 nM, free uptake, approximately 48 hours
Strand notation (5' to 3'): a small letter for the sugar, then the base; units joined by * are phosphorothioate-linked, units joined directly phosphodiester-linked; [ ] holds rarer units or linkages, { } end groups; capitals alone tell only the bases. e = 2'-O-(2-methoxyethyl) (MOE); k = constrained ethyl (cEt); [5mC] = 5-methylcytosine; d = 2'-deoxy (DNA)
Field: class. Source value: % UTC (Yap1 mRNA). Ranges: one (below 10 % UTC), two (10 % UTC to below 20 % UTC), three (20 % UTC or more)

1. 1198528 (kT*kA*dA*dA*dG*dT*dG*dT*dA*dT*dG*eT*k[5mC]*eA*kG*eA; antisense) [compound 1198528] ... three
2. 1197176 (kT*kG*kT*d[5mC]*dT*d[5mC]*dA*dT*dG*d[5mC]*d[5mC]*dT*dT*kA*kT*kA; antisense) [compound 1197176] ... two
3. 1198553 (kT*kA*kG*dA*dG*dT*dA*dT*dG*dT*dG*dG*k[5mC]*kA*kA*eT; antisense) [compound 1198553] ... two
4. 1198719 (kG*eG*kA*dA*dA*dT*dT*dG*dT*d[5mC]*dT*d[5mC]*eA*eT*kG*k[5mC]; antisense) [compound 1198719] ... one
5. 1198918 (kG*k[5mC]*dA*d[5mC]*dT*dT*dT*dT*dA*d[5mC]*dA*kT*dT*kA*dG*kG) [compound 1198918] ... two
6. 1198961 (kA*kA*dA*dG*dT*dG*dT*dA*dT*dG*dT*k[5mC]*dA*kG*dA*kA; antisense) [compound 1198961] ... two
7. 1198529 (kT*kT*dA*dA*dA*dG*dT*dG*dT*dA*dT*eG*kT*e[5mC]*kA*eG; antisense) [compound 1198529] ... three
8. 1198856 (k[5mC]*kT*dT*dA*dT*dA*dT*dG*dG*dT*dT*kT*eT*kG*eT*kG; antisense) [compound 1198856] ... three
9. 1198423 (TCTTATATGGTTTTGT; all C 5-methyl, all phosphorothioate, sugars by position not given here; cEt/MOE mixed gapmer, notation at position 4 garbled) [compound 1198423] ... two
10. 1197178 (kA*kA*kT*dT*dG*dT*d[5mC]*dT*d[5mC]*dA*dT*dG*d[5mC]*k[5mC]*kT*kT; antisense) [compound 1197178] ... two
11. 1198525 (kA*kG*dT*dG*dT*dA*dT*dG*dT*d[5mC]*dA*eG*kA*eA*kG*eA) [compound 1198525] ... one
12. 1198638 (kA*kG*dA*dG*dT*dA*dT*dG*dT*dG*dG*d[5mC]*kA*eA*kT*eA; antisense) [compound 1198638] ... two
13. 1095481 (kT*kG*dA*dG*dG*dT*dA*dT*dA*dA*d[5mC]*dT*kG*eG*kG*e[5mC]) [compound 1095481] ... two
